Source: PubChem BioAssay AID1259400

ASSAY SYSTEM: Relaxin receptor 1 (Homo sapiens)
PROTOCOL NOTES: qHTS Assay for Antagonists of the Relaxin Receptor RXFP1; further: on the % scale 0 is the no-effect control and ±100 the full control effect
CONDITIONS USED: HEK293-RXFP1, relaxin-stimulated cAMP HTRF, 30 min; at 57.5 µM; hits give low values
The campaign covered roughly 350,000 compounds. About 2,100 (0.6%) were called active. Another 1% or so got no clear call; they are omitted. For the sample, actives were picked, then their nearest neighbours and some compounds at random.
REPORTED ENDPOINT: activity change, negative = inhibition (%)
Note: unit % is implicit; provide only the numeric part.

Query: What does the record list as activity change, negative = inhibition for COc1ccc(OCC(O)CNCCNc2nccc(C(F)(F)F)n2)cc1 (stereo unspecified) ?
Response: 6.63

Query: Can you handle O=C(NNc1nc(N2CCCC2)nc(N2CCCC2)n1)c1ccccc1 next?
Response: -63.3

Query: Entry COc1ccc(NC(=O)NC(C)c2c(-n3cccc3)sc(C)c2C)cc1OC (stereo unspecified) please
Response: -9.76

Query: Also CCC(CC)NC(=O)/C=C/c1cccc([N+](=O)[O-])c1 ?
Response: 5.58

Query: Would you kindly repeat that for COCCn1c(=S)[nH]c2cc(C(=O)NCCc3ccc(OC)c(OC)c3)ccc2c1=O ?
Response: 2.84

Query: Try this compound next: O=C(NNC(=O)C1CCC1)c1ccccc1
Response: -1.83

Query: Another: CCCn1c2ccccc2c2cnn(CC(=O)N3CCCC(C(=O)OCC)C3)c(=O)c21 (stereo unspecified)
Response: 3.38

Query: Thanks! And CCOc1ccc(N(CC)S(=O)(=O)N2CCCC(C(=O)NCc3ccc(Cl)cc3)C2)cc1 (stereo unspecified) ?
Response: -18.5

Query: Same thing, different compound: CCN1CCN(c2ncnc3c2cnn3-c2ccc(C)c(C)c2)CC1
Response: -9.99

Query: Queued: COc1cccc(C(c2c(O)cc(C)n(Cc3ccco3)c2=O)N2CCN(c3ccccc3)CC2)c1 (stereo unspecified)
Response: -4.37

Query: CC(C)(C)CC(C)(C)NCC(O)COCCOc1ccc(Br)cc1 (stereo unspecified) , same question.
Response: -90.2

---

ASSAY SYSTEM: Relaxin receptor 1 (Homo sapiens)
PROTOCOL NOTES: qHTS Assay for Antagonists of the Relaxin Receptor RXFP1; further: on the % scale 0 is the no-effect control and ±100 the full control effect
CONDITIONS USED: HEK293-RXFP1, relaxin-stimulated cAMP HTRF, 30 min; at 57.5 µM; hits give low values
Procedure: The relaxin hormone is involved in the variety of biological functions in normal tissues and diseases. […] RXFP1 activation by relaxin in presence of various concentrations of tested compounds was assayed by changes in cAMP levels as detected with a time-resolved fluorescence energy transfer (TR-FRET) cAMP detection kit. For the primary screening, we used HTRF(R) (Homogenous Time-Resolved Fluorescence) cAMP HiRange assay (Cisbio Bioassays, 62AM6PEJ). […]
Screen size: about 350,000 compounds; about 2,100 (0.6%) were called active. Inconclusive results (about 1%) are left out. Many of the other results were omitted from the sample, so actives are more common in it than they were.
I'd be grateful if you could share measured activity change, negative = inhibition for these entries.
// return numeric value only (unit: %, not printed)

Query: For the molecule shown here, CC(C)Cn1c(=O)c2ccccc2n2c(CCC(=O)NCc3ccccn3)nnc12 , give the reported activity change, negative = inhibition.
Response: 1.58

Query: Do the same for COc1ccc2c(CNCCc3ccccc3C)c(C(=O)O)n(Cc3ccccc3C)c2c1 please
Response: -12.7

Query: Same lookup for Cc1cc(C)cc(NC(=O)CSc2nc3nccnc3c(=O)n2CCc2c[nH]c3ccccc23)c1 , please.
Response: 4.86

Query: Repeat with CCc1ccc(N2C(=O)CN(S(=O)(=O)CC)CC2(C)C(=O)NC2CCCCC2)cc1 (centres undefined)
Response: 4.08

Query: Another: O=C(OCC(O)CO)c1ccccc1Nc1ccnc2c(C(F)(F)F)cccc12 (centres undefined)
Response: -23.3

Query: Would you kindly repeat that for CC(C)Cn1c(=O)c2ccccc2n2c(CCC(=O)N3CCN(c4cccc(Cl)c4)CC3)nnc12 ?
Response: -87.5

Query: Queued: O=C(O)c1c(CNCc2cccc(F)c2)c2ccccc2n1Cc1ccccc1
Response: -7.86

Query: Check O=C(NCCCN1CCN(c2cccc(Cl)c2)CC1)c1nnc(Cc2ccc(F)cc2Cl)o1 too.
Response: -19.5

Query: Similarly, CCOC(=O)c1cc(-c2ccccc2)n(-c2cccc(C(=O)Nc3cc(OC)cc(OC)c3)c2)c1C ?
Response: -10.5
